- system: human CXCR3A (Homo sapiens (Human))
- assay_notes: FLIPR assay
- condition_notes: CHO-K1 cells expressing the human CXCR3A coupled to Galpha(16); CXCL10 agonist 20 nM; Fluo-4-AM fluorescence; mean values if determined several times
Listing of entries alongside the reported IC50.
measured_parameter: IC50 (nM)

mol	system	measured_parameter	measured_value
Cn1c(=O)n(CC(=O)N2CCN(c3scnc3-c3nc4cc(C#N)ccc4[nH]3)CC2)c2ccccc21	human CXCR3A (Homo sapiens (Human))	IC50	15
C[C@@H]1CN(c2scnc2-c2nc3ccccc3[nH]2)CCN1C(=O)Cn1c(CO)cc2cccnc21	human CXCR3A (Homo sapiens (Human))	IC50	14
Cn1c(=O)n(CC(=O)N2CCN(c3scnc3-c3nc4ccccc4[nH]3)CC2)c2ccccc21	human CXCR3A (Homo sapiens (Human))	IC50	15
O=C(Cn1cnc2cccnc21)N1CCN(c2scnc2-c2nc3ccccc3[nH]2)CC1	human CXCR3A (Homo sapiens (Human))	IC50	11
C[C@@H]1CN(c2sc(C3COC3)nc2-c2nc3ccccc3[nH]2)CCN1C(=O)Cn1cnc2cccnc21	human CXCR3A (Homo sapiens (Human))	IC50	9

###

- system: human CXCR3A (Homo sapiens (Human), UniProt P49682)
- Sequence (P49682 whole entry): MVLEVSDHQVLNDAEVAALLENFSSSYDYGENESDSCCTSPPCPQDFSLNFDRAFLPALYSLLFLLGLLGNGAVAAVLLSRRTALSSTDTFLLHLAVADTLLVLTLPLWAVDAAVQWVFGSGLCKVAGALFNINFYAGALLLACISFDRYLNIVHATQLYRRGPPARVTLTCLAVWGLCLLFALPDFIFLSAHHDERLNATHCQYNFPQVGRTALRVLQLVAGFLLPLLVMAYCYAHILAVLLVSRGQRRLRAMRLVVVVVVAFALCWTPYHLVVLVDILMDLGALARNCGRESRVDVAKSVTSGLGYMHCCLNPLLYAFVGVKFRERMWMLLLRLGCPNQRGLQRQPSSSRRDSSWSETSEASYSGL
- assay_notes: FLIPR assay
- condition_notes: CHO-K1 cells expressing the human CXCR3A coupled to Galpha(16); CXCL10 agonist 20 nM; Fluo-4-AM fluorescence; mean values if determined several times
pIC50: −log10 of the molar value.

mol	pIC50
COc1cc2nc(-c3nc(C(F)(F)F)sc3N3CCN(C(=O)Cn4cnc5cccnc54)[C@H](C)C3)[nH]c2cc1OC	8.70
C[C@@H]1CN(c2sc(C(F)(F)F)nc2-c2nc3ccccc3[nH]2)CCN1C(=O)Cn1cc(-c2ccccc2)nn1	8.70
Cn1c(=O)n(CC(=O)N2CCN(c3scnc3-c3nc4ccc(OC(F)(F)F)cc4[nH]3)CC2)c2ccccc21	8.70

###

The following compounds are shown together with reported pIC50 values.
- system: CXCR3 (Homo sapiens (Human), UniProt P49682)
- Sequence (P49682 whole entry): as above
- assay_notes: Receptor internalization assay
- Format: cell-based
- condition_notes: human whole blood; final CXCL10 concentration 9 nM; 30 min 37° C.; CXCR3 cell surface expression on CD3 positive cells, flow cytometer; read-out: Internalization IC50
pIC50: −log10 of the molar value.
measured_parameter: pIC50

compound	measured_parameter	measured_value
C[C@@H]1CN(c2sc(C(F)(F)F)nc2-c2nc3ccccc3[nH]2)CCN1C(=O)Cc1cccc(-n2nccn2)c1 [Example 201]	pIC50	5.54
Cn1c(=O)n(CC(=O)N2CCN(c3scnc3-c3nc4ccccc4[nH]3)CC2)c2ccccc21 [Example 3]	pIC50	5.92
C[C@@H]1CN(c2sc(C(F)(F)F)nc2-c2nc3ccccc3[nH]2)CCN1C(=O)Cn1cc2cccnc2n1 [Example 202]	pIC50	7.36
CC[C@@H]1CN(c2scnc2-c2nc3ccccc3[nH]2)CCN1C(=O)Cn1ccc2cccnc21 [Example 18]	pIC50	5.62
Cc1nc(C)n(CC(=O)N2CCN(c3sc(C(F)(F)F)nc3-c3nc4cc(OC(F)(F)F)ccc4[nH]3)C[C@H]2C)n1 [Example 241]	pIC50	6.77
Cn1c(=O)n(CC(=O)N2CCN(c3scnc3-c3nc4cc(C(F)(F)F)ccc4[nH]3)CC2)c2ccccc21 [Example 32]	pIC50	6.20
Cc1nnc(CC(=O)N2CCN(c3sc(C(F)(F)F)nc3-c3nc4ccccc4[nH]3)C[C@H]2C)o1 [Example 195]	pIC50	5.57
COC1CCN(Cc2ccc3nc(-c4nc(C(F)(F)F)sc4N4CCN(C(=O)Cn5cccn5)[C@H](C)C4)[nH]c3c2)C1 (some centres unmarked) [Example 183]	pIC50	5.84
C[C@@H]1CN(c2sc(C(F)(F)F)nc2-c2nc3ccccc3n2C)CCN1C(=O)Cn1cccn1 [Example 184]	pIC50	5.47
O=C(Cn1cnc2cccnc21)N1CCN(c2sc(C(F)(F)F)nc2-c2nc3ccccc3[nH]2)CC1 [Example 226]	pIC50	6.44
Cc1cccc(-c2nc(-c3nc4ccccc4[nH]3)c(N3CCN(C(=O)Cn4cnc5cccnc54)[C@H](C)C3)s2)c1 [Example 149]	pIC50	5.29
